Origin of values: the supplement of paper PMC6555819

System: RARa homodimer (NR concentration 270 nM)
TEST_PROTOCOL: PBM binding z-score (relative to random genomic background probes); higher = stronger binding; sequences stand for … in GC…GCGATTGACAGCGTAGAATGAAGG
Listed sequences paired with reported PBM binding z-score
No unit in the answer, only the number.

[[record]]
item_sequence = "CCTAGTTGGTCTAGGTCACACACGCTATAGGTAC"
number = 1.82

[[record]]
item_sequence = "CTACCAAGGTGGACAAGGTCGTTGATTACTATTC"
number = 0.219


Consider now this further sequence.
Value of PBM binding z-score reported for the sequence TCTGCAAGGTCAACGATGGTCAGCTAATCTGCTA is 0.319
